Measured Relative activity, Enzyme reaction, listed per entry for reference.
# Test system: purified nitrile hydratase from NA40
# Assay explanation: Substrate specificity of the purified nitrile hydratase
# Format: biochemical, Amycolatopsis NA40
# Applied conditions: purified enzyme; 3-cyanopyridine = 100
Dear colleague, please return just the value in %, with no unit written.

Previously resolved entries follow.
Problem: Any idea what Relative activity, Enzyme reaction was measured for CC=CC#N [Crotononitrile] ?
Result: 67

Problem: What do you get for CCCC#N [n-Butyronitrile] ?
Result: 101

Problem: Then N#Cc1ccncc1 [4-Cyanopyridine] ?
Result: 179

Now consider a different compound.
Problem: Looking for the measured Relative activity, Enzyme reaction of C=CC#N [Acrylonitrile] , can you help?
Result: 94
